Ref: patent US20120245155A1

- Test system: Recombinant human BACE1 (Homo sapiens, UniProt P56817)
- Sequence (P56817 46-501): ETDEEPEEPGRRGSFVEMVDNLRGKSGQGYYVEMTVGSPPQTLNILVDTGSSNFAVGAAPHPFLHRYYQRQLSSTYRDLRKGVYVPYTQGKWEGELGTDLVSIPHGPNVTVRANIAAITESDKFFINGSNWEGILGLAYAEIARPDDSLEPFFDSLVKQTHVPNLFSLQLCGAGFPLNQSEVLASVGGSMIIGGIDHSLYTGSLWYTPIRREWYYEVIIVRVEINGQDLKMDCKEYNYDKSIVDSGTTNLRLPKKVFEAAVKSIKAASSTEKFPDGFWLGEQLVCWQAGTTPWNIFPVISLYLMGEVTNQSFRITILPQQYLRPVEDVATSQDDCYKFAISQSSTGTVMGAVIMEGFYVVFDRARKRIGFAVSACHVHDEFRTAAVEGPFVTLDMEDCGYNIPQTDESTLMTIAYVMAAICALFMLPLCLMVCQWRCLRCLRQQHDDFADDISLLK
- Procedure details: Assay of BACE 1 inhibiting activity
- Assay conditions: Recombinant human BACE1 7.4 nmol/L, substrate peptide 18 nmol/L, pH 5.0, 30° C., 3 hours; read-out: 50% inhibitory concentration against the enzymatic activity (IC50)
Hi there, I'd appreciate the recorded IC50 for every entry that follows.

(Q) Looking for the measured IC50 of N#Cc1ccc(C(=O)Nc2ccc(F)c(C34CCCC3COC(N)=N4)c2)nc1 (racemic) , can you help?
(A) ≤ 1000 nM

(Q) So what does the record say about IC50 for N#Cc1ccc(C(=O)Nc2ccc(F)c(C34COCC3COC(N)=N4)c2)nc1 (racemic) ?
(A) ≤ 1000 nM

(Q) Given the compound C=C1SC(N)=NC2(c3cc(NC(=O)c4ccc(C#N)cn4)ccc3F)COCC12 (racemic) , what is its reported IC50?
(A) 29 nM

(Q) Name the recorded IC50 for NC1=NC2(c3cc(NC(=O)c4ccc(Cl)cn4)ccc3F)COCC2CO1 (racemic) .
(A) ≤ 1000 nM

(Q) Sample COc1cnc(C(=O)Nc2ccc(F)c(C34COCC3COC(N)=N4)c2)cn1 (racemic) — what was its IC50?
(A) ≤ 1000 nM

---

- Test system: hERG (IKr) (Homo sapiens, UniProt Q12809)
- Construct: expressed in transfected cells; host or cells: HEK293 cells
- Sequence (Q12809 whole entry): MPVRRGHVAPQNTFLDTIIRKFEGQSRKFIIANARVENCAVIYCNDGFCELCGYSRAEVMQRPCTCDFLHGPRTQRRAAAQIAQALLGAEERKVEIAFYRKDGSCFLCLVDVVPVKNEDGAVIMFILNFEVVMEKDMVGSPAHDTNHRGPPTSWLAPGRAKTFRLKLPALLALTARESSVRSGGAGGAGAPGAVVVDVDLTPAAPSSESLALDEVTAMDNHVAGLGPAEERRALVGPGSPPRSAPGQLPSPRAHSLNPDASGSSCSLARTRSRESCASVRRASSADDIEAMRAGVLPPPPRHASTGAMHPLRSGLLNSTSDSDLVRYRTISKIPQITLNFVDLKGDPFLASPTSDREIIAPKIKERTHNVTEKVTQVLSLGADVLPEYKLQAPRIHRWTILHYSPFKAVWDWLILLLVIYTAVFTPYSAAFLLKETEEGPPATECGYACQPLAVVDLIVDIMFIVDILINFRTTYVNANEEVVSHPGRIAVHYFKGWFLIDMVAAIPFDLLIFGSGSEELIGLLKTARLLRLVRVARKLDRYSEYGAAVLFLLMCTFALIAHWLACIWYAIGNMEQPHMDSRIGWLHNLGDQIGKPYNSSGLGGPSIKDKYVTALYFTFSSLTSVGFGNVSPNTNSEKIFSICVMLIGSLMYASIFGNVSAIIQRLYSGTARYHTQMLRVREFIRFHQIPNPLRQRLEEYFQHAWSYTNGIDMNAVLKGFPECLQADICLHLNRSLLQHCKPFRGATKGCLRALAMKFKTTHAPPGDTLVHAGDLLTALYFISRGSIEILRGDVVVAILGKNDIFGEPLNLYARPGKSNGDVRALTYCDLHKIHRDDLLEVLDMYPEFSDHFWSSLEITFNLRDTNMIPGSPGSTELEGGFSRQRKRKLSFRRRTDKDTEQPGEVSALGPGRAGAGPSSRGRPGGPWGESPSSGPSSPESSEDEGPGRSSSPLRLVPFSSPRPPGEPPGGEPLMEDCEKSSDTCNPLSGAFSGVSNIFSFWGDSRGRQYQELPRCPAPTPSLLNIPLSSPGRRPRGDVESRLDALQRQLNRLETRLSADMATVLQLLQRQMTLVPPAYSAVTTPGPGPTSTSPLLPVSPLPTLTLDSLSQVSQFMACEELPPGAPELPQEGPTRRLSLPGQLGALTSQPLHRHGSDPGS
- Procedure details: hERG test
- Type: cell-based
- Assay conditions: pH 7.4, HEK293 cells expressing hERG channel, whole cell patch clamp, concentration not given, read-out: % inhibition relative to the tail peak current (IKr)
Property label: inhibition at 10 min (%)
Express it in %; write the number only.

(Q) Looking for the measured inhibition at 10 min of NC1=NC2(c3cc(-c4cncnc4)ccc3F)CCCC2CO1 (racemic) [Compound I-39] , can you help?
(A) 19.3
